Target: AT2 receptor (rabbit uterus receptor preparations) (Oryctolagus cuniculus)
Sequence (G1T351 1-363): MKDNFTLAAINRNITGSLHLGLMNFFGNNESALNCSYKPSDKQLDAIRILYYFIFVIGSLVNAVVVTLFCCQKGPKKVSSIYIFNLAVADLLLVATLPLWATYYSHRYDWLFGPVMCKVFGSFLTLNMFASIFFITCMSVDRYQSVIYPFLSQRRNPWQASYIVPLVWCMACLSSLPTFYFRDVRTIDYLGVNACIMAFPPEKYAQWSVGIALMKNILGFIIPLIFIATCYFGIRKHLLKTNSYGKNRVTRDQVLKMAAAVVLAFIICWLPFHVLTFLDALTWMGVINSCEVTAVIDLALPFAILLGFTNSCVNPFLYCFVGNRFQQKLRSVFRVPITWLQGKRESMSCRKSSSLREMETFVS
Entries annotated with measured IC50
Return type: number; implicit unit nM.

Cc1cc(Cn2cnc3c2C[C@@H](C(=O)O)N(C(=O)C(c2ccccc2)c2ccccc2)C3)ccc1N(C)C = 21
COc1ccc(Cn2cnc3c2C[C@@H](C(=O)O)N(C(=O)C(c2ccc(Cl)cc2)c2ccc(Cl)cc2)C3)cc1C = 120

Kindly review the next molecule as well.
Look up IC50 for this molecule: "O=C(O)[C@@H]1Cc2c(ncn2Cc2ccccc2)CN1C(=O)C(c1ccccc1)c1ccccc1" 74
